molecular target: HiBit-BRG1 fusion protein (Homo sapiens, UniProt P51532); construct: expressed in transfected cells; experiment: HiBiT-BRG1 cell-based degradation assay (Nano-Glo HiBiT Lytic Detection, 24 h); settings: HeLa cell line expressing HiBit-BRG1 and LgBit, read-out: BRG1 HiBit Degradation Maximum (%)
Sequence (P51532 whole entry, the tested form may be a part): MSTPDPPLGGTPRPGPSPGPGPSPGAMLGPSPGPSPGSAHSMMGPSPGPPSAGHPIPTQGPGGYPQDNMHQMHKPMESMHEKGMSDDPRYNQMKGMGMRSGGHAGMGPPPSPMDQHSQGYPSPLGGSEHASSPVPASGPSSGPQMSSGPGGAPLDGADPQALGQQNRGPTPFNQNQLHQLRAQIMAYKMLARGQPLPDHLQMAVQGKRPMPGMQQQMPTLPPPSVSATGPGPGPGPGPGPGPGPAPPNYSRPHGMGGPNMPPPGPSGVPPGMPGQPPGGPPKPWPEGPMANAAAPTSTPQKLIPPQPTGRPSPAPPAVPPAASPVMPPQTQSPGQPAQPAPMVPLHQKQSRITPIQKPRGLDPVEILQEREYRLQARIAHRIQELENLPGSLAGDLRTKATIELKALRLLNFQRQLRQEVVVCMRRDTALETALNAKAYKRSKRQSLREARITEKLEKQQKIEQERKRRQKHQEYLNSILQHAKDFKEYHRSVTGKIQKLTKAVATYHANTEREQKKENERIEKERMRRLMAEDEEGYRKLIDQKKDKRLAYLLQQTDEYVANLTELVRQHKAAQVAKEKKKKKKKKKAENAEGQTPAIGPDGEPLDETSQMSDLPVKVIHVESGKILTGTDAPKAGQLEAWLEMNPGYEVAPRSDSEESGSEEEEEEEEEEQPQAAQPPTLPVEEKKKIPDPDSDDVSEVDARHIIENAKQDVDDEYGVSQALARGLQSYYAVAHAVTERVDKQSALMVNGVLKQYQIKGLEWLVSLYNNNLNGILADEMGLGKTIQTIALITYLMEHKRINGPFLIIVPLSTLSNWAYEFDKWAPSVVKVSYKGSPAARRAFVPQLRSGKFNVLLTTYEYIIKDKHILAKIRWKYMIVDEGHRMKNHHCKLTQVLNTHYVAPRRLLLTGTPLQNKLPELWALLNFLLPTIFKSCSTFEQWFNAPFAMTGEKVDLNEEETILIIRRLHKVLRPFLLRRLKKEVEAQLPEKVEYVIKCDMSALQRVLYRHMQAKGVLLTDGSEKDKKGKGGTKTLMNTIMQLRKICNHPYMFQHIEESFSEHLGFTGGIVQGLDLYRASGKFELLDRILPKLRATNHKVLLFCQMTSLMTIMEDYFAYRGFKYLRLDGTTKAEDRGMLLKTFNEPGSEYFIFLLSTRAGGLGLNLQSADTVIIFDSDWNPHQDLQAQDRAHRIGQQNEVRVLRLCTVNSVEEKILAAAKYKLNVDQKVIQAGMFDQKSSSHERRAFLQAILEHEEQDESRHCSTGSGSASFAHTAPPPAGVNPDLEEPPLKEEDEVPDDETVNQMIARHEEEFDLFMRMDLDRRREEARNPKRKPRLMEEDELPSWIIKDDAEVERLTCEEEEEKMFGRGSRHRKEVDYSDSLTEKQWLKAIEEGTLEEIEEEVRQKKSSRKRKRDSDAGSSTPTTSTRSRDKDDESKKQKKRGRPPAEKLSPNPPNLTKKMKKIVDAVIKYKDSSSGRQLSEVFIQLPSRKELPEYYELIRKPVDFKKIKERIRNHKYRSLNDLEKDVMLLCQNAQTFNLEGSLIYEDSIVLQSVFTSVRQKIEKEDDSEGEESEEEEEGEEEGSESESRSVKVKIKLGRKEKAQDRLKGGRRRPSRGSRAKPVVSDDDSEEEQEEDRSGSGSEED
ENDPOINT LABEL: Dmax

// returns Dmax for Cc1ncsc1-c1ccc([C@H](C)NC(=O)[C@@H]2C[C@@H](O)CN2C(=O)[C@@H](c2cc(N3CCN(C(=O)[C@H]4C[C@@]5(Cc6cc(-c7ccccc7O)nnc6N5)C4)CC3)no2)C(C)C)cc1 (racemic) with HiBit-BRG1 fusion protein (Homo sapiens, UniProt P51532); value = < 50%

// returns Dmax for Cc1ncsc1-c1ccc([C@H](C)NC(=O)[C@@H]2C[C@@H](O)CN2C(=O)[C@@H](c2cc(CCCN3CC(c4cc5cc(-c6ccccc6O)nnc5[nH]4)C3)no2)C(C)C)cc1 (single isomer, unassigned) with HiBit-BRG1 fusion protein (Homo sapiens, UniProt P51532); value = < 50%

// returns Dmax for Cc1ncsc1-c1ccc(CNC(=O)[C@@H]2C[C@@H](O)CN2C(=O)[C@@H](NC(=O)CCCNC(=O)[C@H]2CCc3[nH]c4nnc(-c5ccccc5O)cc4c3C2)C(C)(C)C)cc1 (single isomer, unassigned) with HiBit-BRG1 fusion protein (Homo sapiens, UniProt P51532); value = < 50%

// returns Dmax for Cc1ncsc1-c1ccc([C@H](C)NC(=O)[C@@H]2C[C@@H](O)CN2C(=O)[C@@H](c2cc(N3CCN(CC(=O)N4CC(c5cc6cc(-c7ccccc7O)nnc6[nH]5)C4)CC3)no2)C(C)C)cc1 (racemic) with HiBit-BRG1 fusion protein (Homo sapiens, UniProt P51532); value = > 75%

###

Provide the recorded DC50 for the entries that follow.
biological target: HiBit-BRM fusion protein (Homo sapiens, UniProt P51531); construct: expressed in transfected cells; test: HiBiT-BRM cell-based degradation assay (Nano-Glo HiBiT Lytic Detection, 24 h); details: HeLa cell line expressing HiBiT-BRM, read-out: BRM HiBit Degradation IC50
Sequence (P51531 whole entry, the tested form may be a part): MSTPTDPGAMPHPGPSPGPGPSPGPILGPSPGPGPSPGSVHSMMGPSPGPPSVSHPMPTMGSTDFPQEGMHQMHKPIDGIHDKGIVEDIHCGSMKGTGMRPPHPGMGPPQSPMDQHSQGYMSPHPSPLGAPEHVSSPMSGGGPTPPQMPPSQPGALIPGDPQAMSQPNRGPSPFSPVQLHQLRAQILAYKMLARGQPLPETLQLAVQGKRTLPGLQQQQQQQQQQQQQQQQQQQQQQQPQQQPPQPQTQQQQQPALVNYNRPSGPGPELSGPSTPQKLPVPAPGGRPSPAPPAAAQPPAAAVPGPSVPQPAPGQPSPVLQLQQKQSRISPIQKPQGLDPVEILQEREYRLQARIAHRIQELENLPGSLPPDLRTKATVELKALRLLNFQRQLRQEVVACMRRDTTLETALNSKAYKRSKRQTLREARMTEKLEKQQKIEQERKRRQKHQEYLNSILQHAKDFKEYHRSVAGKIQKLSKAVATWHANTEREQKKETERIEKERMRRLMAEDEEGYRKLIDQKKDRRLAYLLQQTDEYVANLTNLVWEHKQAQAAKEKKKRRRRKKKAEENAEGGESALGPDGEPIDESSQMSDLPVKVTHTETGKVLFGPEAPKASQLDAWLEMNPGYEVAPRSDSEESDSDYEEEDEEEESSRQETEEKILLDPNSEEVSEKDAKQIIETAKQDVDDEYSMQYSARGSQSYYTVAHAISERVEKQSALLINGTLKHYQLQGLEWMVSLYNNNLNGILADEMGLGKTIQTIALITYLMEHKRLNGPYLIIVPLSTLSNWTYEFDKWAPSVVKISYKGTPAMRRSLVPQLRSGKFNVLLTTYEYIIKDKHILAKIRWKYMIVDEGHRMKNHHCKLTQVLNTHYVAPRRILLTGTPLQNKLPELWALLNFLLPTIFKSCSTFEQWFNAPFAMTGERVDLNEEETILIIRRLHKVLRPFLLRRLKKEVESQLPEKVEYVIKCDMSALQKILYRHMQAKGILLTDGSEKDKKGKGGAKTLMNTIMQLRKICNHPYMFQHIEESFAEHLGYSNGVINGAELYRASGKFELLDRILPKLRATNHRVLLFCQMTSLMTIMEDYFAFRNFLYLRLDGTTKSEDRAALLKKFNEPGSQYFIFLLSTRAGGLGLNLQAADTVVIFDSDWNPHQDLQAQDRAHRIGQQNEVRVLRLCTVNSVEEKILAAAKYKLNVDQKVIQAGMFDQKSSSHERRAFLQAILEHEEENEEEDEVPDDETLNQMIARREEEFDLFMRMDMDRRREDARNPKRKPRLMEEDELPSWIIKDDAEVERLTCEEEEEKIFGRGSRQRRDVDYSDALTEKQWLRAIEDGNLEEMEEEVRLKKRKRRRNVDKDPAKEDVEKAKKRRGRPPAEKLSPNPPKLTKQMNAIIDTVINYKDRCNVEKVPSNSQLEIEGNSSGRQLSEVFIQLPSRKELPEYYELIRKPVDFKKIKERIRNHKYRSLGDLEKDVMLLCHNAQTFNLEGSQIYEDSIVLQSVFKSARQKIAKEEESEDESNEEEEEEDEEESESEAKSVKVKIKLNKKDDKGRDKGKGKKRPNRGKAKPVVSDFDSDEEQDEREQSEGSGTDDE

GET /value?item= Cc1ncsc1-c1ccc(CNC(=O)[C@@H]2C[C@@H](O)CN2C(=O)[C@@H](NC(=O)CCN(C)C23CC(c4cc5cc(-c6ccccc6O)nnc5[nH]4)(C2)C3)C(C)(C)C)cc1 (racemic) &field=DC50 returns > 100 nM

GET /value?item= Cc1ncsc1-c1ccc(C(C)NC(=O)C2CC(O)CN2C(=O)C(c2cc(OCCN3CC4C(C3)C4c3cc4cc(-c5cc(F)cc(F)c5O)nnc4[nH]3)no2)C(C)C)cc1 (centres unmarked) &field=DC50 returns > 10 nM

GET /value?item= Cc1ncsc1-c1ccc([C@H](C)NC(=O)[C@@H]2C[C@@H](O)CN2C(=O)[C@@H](c2cc(OCCN3CC[C@H](c4c[nH]c5nnc(-c6ccccc6O)cc45)C3)no2)C(C)C)cc1 (racemic) &field=DC50 returns > 100 nM

GET /value?item= Cc1ncsc1-c1ccc([C@H](C)NC(=O)[C@@H]2C[C@@H](O)CN2C(=O)C(c2cc(N3CCC(C(=O)N4CC(c5c[nH]c6nnc(-c7ccccc7O)cc56)C4)CC3)no2)C(C)C)cc1 (mixture of isomers) &field=DC50 returns > 100 nM

GET /value?item= Cc1ncsc1-c1ccc([C@H](C)NC(=O)[C@@H]2C[C@@H](O)CN2C(=O)[C@@H](c2cc(OCCN3CCC[C@@H](c4c[nH]c5nnc(-c6ccccc6O)cc45)C3)no2)C(C)C)cc1 (racemic) &field=DC50 returns > 10 nM

Cited source for all entries: patent US20240024488A1
